# subject_of_test: KRAS G12C (GMPPNP-loaded) and cRAF (Ras-binding domain) interaction (Homo sapiens (Human), UniProt P01116, C118S/C51S/C80L/G12C)
# Sequence (P01116 other isoform, or with tags, fused parts or gaps G12C/C51S/C80L/C118S): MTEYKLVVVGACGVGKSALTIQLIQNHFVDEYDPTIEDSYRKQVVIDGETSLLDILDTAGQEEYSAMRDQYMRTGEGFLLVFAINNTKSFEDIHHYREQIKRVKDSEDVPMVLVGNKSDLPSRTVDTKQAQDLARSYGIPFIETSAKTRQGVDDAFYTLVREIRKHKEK
# method_description: Inhibition of KRAS G12C and cRAF binding (AlphaScreen)
# test_conditions: KRAS G12C loaded with GMPPNP, cRaf RBD, 2 hours preincubation; read-out: Raf-1 RBD K-Ras IC50
recorded_metric: IC50

molecule | IC50
Cc1nccc(/C=C/C(=O)N2CCN(c3nc(OC[C@@]45CCCN4C[C@H](F)C5)nc4c(F)c(-c5cccc(Cl)c5C5CC5)ncc34)C[C@@H]2CC#N)n1 | < 10 nM
C=C(C)c1c(Cl)cccc1-c1ncc2c(N3CCN(C(=O)/C=C/CN4C5CCC4COC5)[C@@H](CC#N)C3)nc(OC[C@@]34CCCN3C[C@H](F)C4)nc2c1F | < 10 nM
CC(F)(F)c1noc(/C=C/C(=O)N2CCN(c3nc(OC[C@@]45CCCN4C[C@H](F)C5)nc4c(F)c(-c5cccc6cccc(Cl)c56)ncc34)C[C@@H]2CC#N)n1 | < 10 nM
CC(C)c1noc(/C=C/C(=O)N2CCN(c3nc(OC[C@@]45CCCN4C[C@H](F)C5)nc4c(F)c(-c5nc(N)cc6cccc(F)c56)ncc34)C[C@@H]2CC#N)n1 | 10 to 100 nM
Cc1cc(/C=C/C(=O)N2CCN(c3nc(OC[C@@]45CCCN4C[C@H](F)C5)nc4c(F)c(-c5cccc6ccccc56)ncc34)C[C@@H]2CC#N)nc(C)n1 | 100 to 500 nM

Query (molecule): "Cn1cnc(/C=C/C(=O)N2CCN(c3nc(OC[C@@]45CCCN4C[C@H](F)C5)nc4c3CCN(c3cccc5cccc(Cl)c35)C4)C[C@@H]2CC#N)c1" ; field requested: IC50 100 to 500 nM

// same read-out, input: "N#CC[C@H]1CN(c2nc(OC[C@@]34CCCN3C[C@H](F)C4)nc3c(F)c(-c4nc(N)cc5cccc(Cl)c45)ncc23)CCN1C(=O)/C=C/CN1CCOCC1" < 10 nM

// same read-out, input: "CC(C)c1noc(/C=C/C(=O)N2CCN(c3nc(OCC45CCCN4CCC5)nc4c(F)c(-c5cccc6ccc(F)c(Cl)c56)ncc34)C[C@@H]2CC#N)n1" 100 to 500 nM

// same read-out, input: N#CC[C@H]1CN(c2nc(OCC34CCCN3CCC4)nc3c2CCN(c2cccc4cccc(Cl)c24)C3)CCN1C(=O)/C=C/CN1CC2CC2C1 (stereo partly shown) < 10 nM

// same read-out, input: "N#CC[C@H]1CN(c2nc(OC[C@@]34CCCN3C[C@H](F)C4)nc3c(F)c(-c4cccc5cccc(Cl)c45)ncc23)CCN1C(=O)/C=C/CN1CCOCC1" 10 to 100 nM

// same read-out, input: "CC(C)c1noc(/C=C/C(=O)N2CCN(c3nc(OC[C@@]45CCCN4C[C@H](F)C5)nc4c3CCN(c3cccc5ccc(F)c(Cl)c35)C4)C[C@@H]2CC#N)n1" 10 to 100 nM

// same read-out, input: "N#CC[C@H]1CN(c2nc(OC[C@@]34CCCN3C[C@H](F)C4)nc3c(F)c(-c4cccc5cccc(Cl)c45)ncc23)CCN1C(=O)/C=C/CN1CC2CC(C1)O2" < 10 nM

====

# subject_of_test: KRAS G12C (GMPPNP-loaded) and cRAF (Ras-binding domain) interaction (Homo sapiens (Human), UniProt P01116, C118S/C51S/C80L/G12C)
# method_description: Inhibition of KRAS G12C and cRAF binding (AlphaScreen)
# test_conditions: KRAS G12C loaded with GMPPNP, cRaf RBD, 2 hours preincubation; read-out: Raf-1 RBD K-Ras IC50
pIC50: −log10 of the molar value.
recorded_metric: pIC50

compound | pIC50
N#CC[C@H]1CN(c2nc(OCC34CCCN3CCC4)nc3c2CCN(c2cccc4cccc(Cl)c24)C3)CCN1C(=O)/C=C/CCN1CCOCC1 [Compound 153] | 7.00 to 8.00
N#CC[C@H]1CN(c2nc(OC[C@@]34CCCN3C[C@H](F)C4)nc3c(F)c(-c4cccc5cccc(Cl)c45)ncc23)CCN1C(=O)/C=C/CN1C[C@H]2C[C@@H]1CO2 [Compound 181] | > 8.00
CO[C@@H]1CCN(C/C=C/C(=O)N2CCN(c3nc(OC[C@@]45CCCN4C[C@H](F)C5)nc4c(F)c(-c5cccc6cccc(Cl)c56)ncc34)C[C@@H]2CC#N)C1 [Compound 191] | > 8.00
Cc1cc(N)nc([C@@H]2Cc3nc(OC[C@@]45CCCN4C[C@H](F)C5)nc(N4CCN(C(=O)/C=C/CN(C)C)[C@@H](CC#N)C4)c3C[C@H]2C)c1C(F)(F)F [Compound 322] | > 8.00
N#CC[C@H]1CN(c2nc(OCC34CCCN3CCC4)nc3c2CCN(c2cccc4cccc(Cl)c24)C3)CCN1C(=O)/C=C/c1ncccn1 [Compound 35] | 6.30 to 7.00

Query (compound): N#CC[C@H]1CN(c2nc(OC[C@@]34CCCN3C[C@H](F)C4)nc3c(F)c(-c4cccc5cccc(Cl)c45)ncc23)CCN1C(=O)/C=C/c1ccnc(C2CC2)n1 [Compound 154] ; field requested: pIC50 > 8.00

// same read-out, input: C[C@@H]1CN(C/C=C/C(=O)N2CCN(c3nc(OCC45CCCN4CCC5)nc4c3CCN(c3cccc5cccc(Cl)c35)C4)C[C@@H]2CC#N)C[C@H](C)O1 [Compound 196] 7.00 to 8.00

// same read-out, input: CC(C)c1noc(/C=C/C(=O)N2CCN(c3nc(OC[C@@]45CCCN4C[C@H](F)C5)nc4c(F)c(-c5cccc6ccc(F)c(Cl)c56)ncc34)C[C@@H]2CC#N)n1 [Compound 132] 7.00 to 8.00

// same read-out, input: N#CC[C@H]1CN(c2nc(OC[C@@]34CCCN3C[C@H](F)C4)nc3c2CCN(c2cccc4cccc(Cl)c24)C3)CCN1C(=O)/C=C/c1nc([C@H]2C[C@@H]2F)no1 [Compound 37] 7.00 to 8.00

// same read-out, input: N#CC[C@H]1CN(c2nc(OC[C@@]34CCCN3C[C@H](F)C4)nc3c(F)c(-c4cccc5cccc(Cl)c45)ncc23)CCN1C(=O)/C=C/CN1CCn2ccnc2C1 [Compound 262] 7.00 to 8.00

====

# subject_of_test: KRAS G12C (GMPPNP-loaded) and cRAF (Ras-binding domain) interaction (Homo sapiens (Human), UniProt P01116, C118S/C51S/C80L/G12C)
# method_description: Inhibition of KRAS G12C and cRAF binding (AlphaScreen)
# test_conditions: KRAS G12C loaded with GMPPNP, cRaf RBD, 2 hours preincubation; read-out: Raf-1 RBD K-Ras IC50
recorded_metric: IC50

smiles_entry | endpoint_value
CC(C)(C)c1noc(/C=C/C(=O)N2CCN(c3nc(OC[C@@]45CCCN4C[C@H](F)C5)nc4c3CCN(c3cccc5cccc(Cl)c35)C4)C[C@@H]2CC#N)n1 | 10 to 100 nM
CC(C)c1noc(/C=C/C(=O)N2CCN(c3nc(OC[C@@]45CCCN4C[C@H](F)C5)nc4c3CCN(c3cccc5cccc(Cl)c35)C4)C[C@@H]2CC#N)n1 | 10 to 100 nM

Query (compound): "C[C@@H]1CN(C/C=C/C(=O)N2CCN(c3nc(OC[C@@]45CCCN4C[C@H](F)C5)nc4c(F)c(-c5cccc(Cl)c5C(F)(F)F)ncc34)C[C@@H]2CC#N)C[C@@H](C)O1" ; field requested: IC50 < 10 nM

====

# subject_of_test: KRAS G12C (GMPPNP-loaded) and cRAF (Ras-binding domain) interaction (Homo sapiens (Human), UniProt P01116, C118S/C51S/C80L/G12C)
# method_description: Inhibition of KRAS G12C and cRAF binding (AlphaScreen)
# test_conditions: KRAS G12C loaded with GMPPNP, cRaf RBD, 2 hours preincubation; read-out: Raf-1 RBD K-Ras IC50
pIC50: −log10 of the molar value.
The entries below come with measured pIC50 values attached.

Query (compound): N#CC[C@H]1CN(c2nc(OC[C@@]34CCCN3C[C@H](F)C4)nc3c(F)c(-c4cccc5ccc(F)c(Cl)c45)ncc23)CCN1C(=O)/C=C/CN1CC2CC(C1)O2 [Example 77] ; field requested: pIC50 > 8.00

====

# method_description: Determination of logD (1-octanol / phosphate buffer pH 7.4)
# Assay type: physicochemical
# test_conditions: 1-octanol/phosphate buffer, pH 7.4, pH 7.4, 1-octanol/phosphate buffer; read-out: Log D, pH 7.4
# Method: Preparation of phosphate buffer saturated with 1-octanol: 10 mL of 100 mM phosphate buffer (pH 7.4) was added to 100 mL of 1-octanol. The mixture was shaken vigorously and left to stand at room temperature overnight. […] 149 μL of phosphate buffer saturated with 1-octanol was added into 1st sample tube. […] Samples of the supernatant were taken from both tubes, diluted with an appropriate LCMS buffer, and analyzed on an LCMS instrument. LogD was calculated according to the following equation.
recorded_metric: logD

smiles_entry | logD
Cc1c(Cl)cccc1-c1ncc2c(N3CCN(C(=O)/C=C/CN4[C@@H]5CC[C@H]4COC5)[C@@H](CC#N)C3)nc(OC[C@@]34CCCN3C[C@H](F)C4)nc2c1F | 3.1
CN(C)C/C=C/C(=O)N1CCN(c2nc(OC[C@@]34CCCN3C[C@H](F)C4)nc3c(F)c(-c4cccc(Cl)c4C4CC4)ncc23)C[C@@H]1CC#N | 2.54
N#CC[C@H]1CN(c2nc(OC[C@@]34CCCN3C[C@H](F)C4)nc3c(F)c(-c4cccc5ccc(F)c(F)c45)ncc23)CCN1C(=O)/C=C/CN1CC2CCC(C1)O2 | 3.38
Cc1cc(/C=C/C(=O)N2CCN(c3nc(OC[C@@]45CCCN4C[C@H](F)C5)nc4c(F)c(-c5cccc6ccc(F)c(Cl)c56)ncc34)C[C@@H]2CC#N)nc(C)n1 | 3.99
CO[C@H]1CCN(C/C=C/C(=O)N2CCN(c3nc(OC[C@@]45CCCN4C[C@H](F)C5)nc4c(F)c(-c5cccc6ccc(F)c(Cl)c56)ncc34)C[C@@H]2CC#N)C1 | 3.2
